Data credit: patent US7485651B2

Target: m1 receptor (Homo sapiens, UniProt P11229)
Construct: expressed in transfected cells; host or cells: NIH 3T3 (ATCC CRL 1658)
Sequence (P11229 whole entry): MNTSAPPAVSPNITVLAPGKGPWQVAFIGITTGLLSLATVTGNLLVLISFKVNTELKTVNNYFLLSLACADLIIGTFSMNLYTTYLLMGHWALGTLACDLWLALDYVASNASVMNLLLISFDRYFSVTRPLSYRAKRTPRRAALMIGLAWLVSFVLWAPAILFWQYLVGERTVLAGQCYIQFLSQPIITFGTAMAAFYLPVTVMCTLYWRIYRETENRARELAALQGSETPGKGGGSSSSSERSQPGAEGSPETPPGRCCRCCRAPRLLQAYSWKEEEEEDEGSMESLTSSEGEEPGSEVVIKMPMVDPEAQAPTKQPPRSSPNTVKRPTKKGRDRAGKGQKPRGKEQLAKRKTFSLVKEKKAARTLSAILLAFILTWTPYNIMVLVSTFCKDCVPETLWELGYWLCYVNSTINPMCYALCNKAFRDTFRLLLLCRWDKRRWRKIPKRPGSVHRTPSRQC
Assay: R-SAT / NIH 3T3 cells transfected with m1 muscarinic receptor
Format: cell-based
Settings: NIH3T3; m1; compound at 1.5 μM; maximum = response to 10 μM carbachol; read-out: Cellular response as a percentage of the maximum response of the cells
Procedure: Cell amplification is detected as increased levels of a marker also expressed by the cells. The cells were treated with trypsin-EDTA, spun down and plated at 2×10^6 per 15 cm dish in 20 m1 of DMEM containing 10% calf serum. On day one, the cells were transfected using the Superfect transfection reagent (available from Qiagen, Valencia, Calif.) in accordance with the manufacturer's instructions. […]
observed-property: Emax at 1.5 µM (%)

1 = CCCCC1CCN(CCCC(=O)c2ccccc2OC)CC1 [F]
2 = CCCCC1CCN(CCCC(=O)c2ccc(C)cc2C)CC1 [E]
Compare Emax at 1.5 µM: is it lower for 1 or for 2 ? Identify your pick by its label.
2
(2: 42%, 1: 65%)

###

Molecular target: m3 receptor (Homo sapiens, UniProt P20309)
Construct: expressed in transfected cells; host or cells: NIH 3T3 (ATCC CRL 1658)
Sequence (P20309 whole entry): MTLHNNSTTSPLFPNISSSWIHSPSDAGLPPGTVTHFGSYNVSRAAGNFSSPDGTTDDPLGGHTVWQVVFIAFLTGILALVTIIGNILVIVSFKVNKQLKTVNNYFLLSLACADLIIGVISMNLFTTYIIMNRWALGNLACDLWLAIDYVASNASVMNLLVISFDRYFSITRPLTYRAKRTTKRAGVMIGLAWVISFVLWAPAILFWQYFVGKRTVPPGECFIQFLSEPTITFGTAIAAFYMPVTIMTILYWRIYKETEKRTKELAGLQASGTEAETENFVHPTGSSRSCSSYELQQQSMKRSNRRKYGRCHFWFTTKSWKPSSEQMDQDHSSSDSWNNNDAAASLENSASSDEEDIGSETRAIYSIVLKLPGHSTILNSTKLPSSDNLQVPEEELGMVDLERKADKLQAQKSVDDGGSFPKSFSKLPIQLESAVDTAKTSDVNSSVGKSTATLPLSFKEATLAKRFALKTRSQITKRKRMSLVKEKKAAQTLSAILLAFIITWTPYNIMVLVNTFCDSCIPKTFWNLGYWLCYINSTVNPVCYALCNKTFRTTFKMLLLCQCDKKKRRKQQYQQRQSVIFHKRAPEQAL
Assay: R-SAT / NIH 3T3 cells transfected with m3 muscarinic receptor
Type: cell-based
Conditions: NIH3T3; m3; compound at 1.5 μM; maximum = response to 10 μM carbachol; read-out: Cellular response as a percentage of the maximum response of the cells
Source text: A particularly convenient functional assay system is the receptor selection and amplification assay disclosed in U.S. Pat. No. 5,707,798 describing a method of screening for bioactive compounds by utilizing the ability of cells transfected with receptor DNA, e.g. coding for the different muscarinic subtypes, to amplify in the presence of a ligand of the receptor. Cell amplification is detected as increased levels of a marker also expressed by the cells. […]
observed-property: Emax at 1.5 µM (%)

See these solved cases before continuing.
{"columns": ["compound", "experimental-target", "Emax at 1.5 µM, %"],
 "data": [
  ["CCCCC1CCN(CCCC(=O)c2ccccc2)CC1 [G]", "m3 receptor (Homo sapiens, UniProt P20309)", 16],
  ["CCCCC1CCN(CCCC(=O)c2ccccc2OCC)CC1 [B]", "m3 receptor (Homo sapiens, UniProt P20309)", 7],
  ["CCCCC1CCN(CCCC(=O)c2ccccc2OC)CC1 [F]", "m3 receptor (Homo sapiens, UniProt P20309)", 9],
  ["CCCCC1CCN(CCCC(=O)c2ccccc2C)CC1 [Compound A]", "m3 receptor (Homo sapiens, UniProt P20309)", 7]
]}

P = CCCCC1CCN(CCCC(=O)c2ccccc2O)CC1 [C]
Q = CCCCC1CCN(CCCC(=O)c2ccc(C)cc2C)CC1 [E]
R = CCCCC1CCN(CCCC(=O)c2cccc(C)c2C)CC1 [D]
Could you please sort these 3 entries by Emax at 1.5 µM from high to low? I would appreciate it if you listed the labels in the requested order.
R, Q, P

###

biological target: m5 receptor (Homo sapiens, UniProt P08912); construct: expressed in transfected cells; host or cells: NIH 3T3 (ATCC CRL 1658); assay: R-SAT / NIH 3T3 cells transfected with m5 muscarinic receptor; assay type: cell-based; conditions: NIH3T3; m5; compound at 1.5 μM; maximum = response to 10 μM carbachol; read-out: Cellular response as a percentage of the maximum response of the cells
Sequence (P08912 whole entry): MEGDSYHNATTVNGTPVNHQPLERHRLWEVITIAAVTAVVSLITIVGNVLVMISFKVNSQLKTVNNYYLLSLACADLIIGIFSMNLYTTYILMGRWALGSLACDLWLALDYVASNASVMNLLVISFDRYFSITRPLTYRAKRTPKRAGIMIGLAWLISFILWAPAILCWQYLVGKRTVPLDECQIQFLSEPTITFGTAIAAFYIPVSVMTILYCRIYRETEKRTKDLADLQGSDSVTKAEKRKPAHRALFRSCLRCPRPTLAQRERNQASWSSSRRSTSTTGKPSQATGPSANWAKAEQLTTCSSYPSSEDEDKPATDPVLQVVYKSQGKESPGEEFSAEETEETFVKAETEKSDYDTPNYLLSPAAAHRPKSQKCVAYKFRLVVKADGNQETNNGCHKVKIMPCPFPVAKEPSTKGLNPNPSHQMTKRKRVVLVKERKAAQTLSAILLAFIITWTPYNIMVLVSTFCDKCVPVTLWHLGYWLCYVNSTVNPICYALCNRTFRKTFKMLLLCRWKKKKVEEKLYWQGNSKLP
observed-property: Emax at 1.5 µM (%)

See these solved cases before continuing.
{"columns": ["entry-smiles", "observed-result"],
 "data": [
  ["CCCCC1CCN(CCCC(=O)c2ccccc2C)CC1", 3],
  ["CCCCC1CCN(CCCC(=O)c2ccccc2OC)CC1", 5]
]}

I = CCCCC1CCN(CCCC(=O)c2ccccc2)CC1
II = CCCCC1CCN(CCCC(=O)c2ccccc2O)CC1
III = CCCCC1CCN(CCCC(=O)c2cccc(C)c2C)CC1
IV = CCCCC1CCN(CCCC(=O)c2ccc(C)cc2C)CC1
V = CCCCC1CCN(CCCC(=O)c2ccccc2OCC)CC1
Please put the entries in order of rising Emax at 1.5 µM. I would appreciate it if you listed the labels in the requested order.
V, IV, II, III, I

###

molecular target: m1 receptor (Homo sapiens, UniProt P11229); construct: expressed in transfected cells; host or cells: NIH 3T3 (ATCC CRL 1658); experiment: R-SAT / NIH 3T3 cells transfected with m1 muscarinic receptor; format: cell-based; conditions: NIH3T3; m1; compound at 1.5 μM; maximum = response to 10 μM carbachol; read-out: Cellular response as a percentage of the maximum response of the cells
observed-property: Emax at 1.5 µM (%)

{"columns": ["entry-smiles", "readout-units", "observed-result"],
 "data": [
  ["CCCCC1CCN(CCCC(=O)c2cccc(C)c2C)CC1", "%", 72],
  ["CCCCC1CCN(CCCC(=O)c2ccccc2OCC)CC1", "%", 76],
  ["CCCCC1CCN(CCCC(=O)c2ccccc2O)CC1", "%", 91],
  ["CCCCC1CCN(CCCC(=O)c2ccccc2)CC1", "%", 66],
  ["CCCCC1CCN(CCCC(=O)c2ccccc2C)CC1", "%", 107]
]}
